Hello, the source for this data is paper PMC6151456, in case you need it.

test system: T. cruzi intracellular amastigotes; test: T. cruzi intracellular amastigote image-based assay; type: cell-based, Trypanosoma cruzi; settings: read-out: IC50 (mean ± SD), T. cruzi; intracellular amastigotes; n = 2; top 18.3 µM; listed as Lissoclinotoxin E (1)
metric: IC50 (µM)
Expressed in µM, but write only the number.

Q) Entry under review: "COc1c(OC)c2c(c(CCN(C)C)c1SC)Sc1c(CCN(C)C)c(SC)c(OC)c(OC)c1S2" . Reported IC50?
A) 3.92

====

test system: HEK-293 cells; assay: HEK-293 resazurin viability assay (cytotoxicity, selectivity); type: cell-based, human; settings: relative to T. b. brucei
metric: Selectivity index (SI) compared to HEK-293 cells

Q) Which Selectivity index (SI) compared to HEK-293 cells is listed for N=C(N)c1ccc(/N=N/Nc2ccc(C(=N)N)cc2)cc1 [Diminazene] ?
A) > 962.75

Q) Need Selectivity index (SI) compared to HEK-293 cells, item COc1c(OC)c2c(c(CCN(C)C)c1SC)Sc1c(CCN(C)C)c(SC)c(OC)c(OC)c1S2 [Compound 1, Lissoclinotoxin E]
A) > 17.68

Q) Look up Selectivity index (SI) compared to HEK-293 cells: N=C(N)c1ccc(OCCCCCOc2ccc(C(=N)N)cc2)cc1 [Pentamidine]
A) > 334.52
